# TARGET_SYSTEM: purified CaMKIIα (Rattus norvegicus)
# EXPERIMENT: In vitro kinase reaction: CaMKIIα autophosphorylation of T286
# Type: biochemical
# CONDITION_NOTES: 30 °C, 1 mM ATP, Ki from IC50 with Km ATP 33.3 μM, read-out: apparent inhibitor constant (Ki), pT286
QUANTITY_KIND: Ki (µM)
Numbers only, in µM.

Prompt line: For the molecule NCCNc1cccc(-c2ccnc3[nH]c4ccccc4c23)c1 , what Ki is on record?
Response line: 0.071
